# Test system: HBV rcDNA
# experimental_details: HepDE19 assay with bDNA quantitation of HBV rcDNA
# Type: cell-based, hepatitis B virus
# measurement_conditions: HepDE19 assay, inhibition of formation of relaxed circular DNA (rcDNA), bDNA quantitation; read-out: DE-19bDNA EC50
pEC50: −log10 of the molar value.
# pEC50 per record follows
endpoint: pEC50

>  <compound>
CC(c1cnc(OCc2nc[nH]n2)c2cc(F)c(F)cc12)N(C)C(=O)Nc1ccc(F)c(Cl)c1 (single isomer, unassigned) [Compound 362]

>  <test_target>
HBV rcDNA

>  <test_result>
6.05

$$$$
>  <compound>
CC(C)CN(C(=O)Nc1ccc(F)c(Cl)c1)C(C)c1c[nH]c(=O)c2c(F)cc(F)cc12 (single isomer, unassigned) [Compound 372]

>  <test_target>
HBV rcDNA

>  <test_result>
8.30

$$$$
>  <compound>
CC(c1c[nH]c(=O)c2c(F)c(F)ccc12)N(C)C(=O)Nc1ccc(F)c(C(F)F)c1 (single isomer, unassigned) [Compound 503]

>  <test_target>
HBV rcDNA

>  <test_result>
6.07

$$$$
>  <compound>
CC(c1c[nH]c(=O)c2c(F)c(F)ccc12)N(CCCO)C(=O)Nc1ccc(F)c(Cl)c1 (single isomer, unassigned) [Compound 335]

>  <test_target>
HBV rcDNA

>  <test_result>
8.22

$$$$
>  <compound>
CC(c1cn(C)c(=O)c2cc(F)c(F)cc12)N(C)C(=O)Nc1ccc(F)c(Cl)c1 (single isomer, unassigned) [Compound 340]

>  <test_target>
HBV rcDNA

>  <test_result>
5.34

$$$$
>  <compound>
CC(c1c[nH]c(=O)c2c(F)c(F)ccc12)N(C)C(=O)NCc1ccc(F)c(Cl)c1 (single isomer, unassigned) [Compound 497]

>  <test_target>
HBV rcDNA

>  <test_result>
6.59

$$$$
>  <compound>
CCN(C(=O)Nc1ccc(F)c(Cl)c1)C(C)c1c[nH]c(=O)c2cc(F)c(F)cc12 (single isomer, unassigned) [Compound 406]

>  <test_target>
HBV rcDNA

>  <test_result>
5.68

$$$$
>  <compound>
CC(c1c[nH]c(=O)c2cc(F)c(F)cc12)N(CCS(N)(=O)=O)C(=O)Nc1ccc(F)c(Cl)c1 (single isomer, unassigned) [Compound 385]

>  <test_target>
HBV rcDNA

>  <test_result>
5.59

$$$$
>  <compound>
CC(c1c[nH]c(=O)c2c(F)c(F)ccc12)N(C)C(=O)Nc1ccc2cc[nH]c2c1 (single isomer, unassigned) [Compound 499]

>  <test_target>
HBV rcDNA

>  <test_result>
6.52

$$$$
>  <compound>
CC(c1c[nH]c(=O)c2c(F)cc(F)cc12)N(CCCO)C(=O)Nc1ccc(F)cc1 (single isomer, unassigned) [Compound 378]

>  <test_target>
HBV rcDNA

>  <test_result>
7.62

$$$$
>  <compound>
CC(c1cn(C)c(=O)c2cc(F)c(F)cc12)N(C)C(=O)Nc1ccc(F)c(Cl)c1 (single isomer, unassigned) [Compound 341]

>  <test_target>
HBV rcDNA

>  <test_result>
7.96

$$$$
>  <compound>
Cc1cc(NC(=O)N(C)C(C)c2c[nH]c(=O)c3cc(F)c(F)cc23)ccc1F (single isomer, unassigned) [Compound 427]

>  <test_target>
HBV rcDNA

>  <test_result>
8.15

$$$$
>  <compound>
CC(c1c[nH]c(=O)c2cc(F)c(F)cc12)N(C)C(=O)NCc1cc(F)c(F)c(F)c1 (single isomer, unassigned) [Compound 482]

>  <test_target>
HBV rcDNA

>  <test_result>
4.96

$$$$
>  <compound>
CC(c1c[nH]c(=O)c2cc(F)c(F)cc12)N(C)C(=O)Nc1cc(F)c(F)c(F)c1 (single isomer, unassigned) [Compound 414]

>  <test_target>
HBV rcDNA

>  <test_result>
5.32

$$$$
>  <compound>
Cc1ncc(C(C)N(C)C(=O)Nc2ccc(F)c(Cl)c2)c2ccccc12 (single isomer, unassigned) [Compound 352]

>  <test_target>
HBV rcDNA

>  <test_result>
5.00

$$$$
>  <compound>
CC(c1c[nH]c(=O)c2c(F)cc(F)cc12)N(C)C(=O)Nc1ccc(F)c(Cl)c1 (single isomer, unassigned) [Compound 369]

>  <test_target>
HBV rcDNA

>  <test_result>
7.72

$$$$
>  <compound>
CC(c1cnc(C(=O)N(C)C)c2ccccc12)N(C)C(=O)Nc1ccc(F)c(Cl)c1 (single isomer, unassigned) [Compound 319]

>  <test_target>
HBV rcDNA

>  <test_result>
6.42

$$$$
>  <compound>
CC(c1c[nH]c(=O)c2c(F)cc(F)cc12)N(C)C(=O)Nc1ccc(F)cc1 (single isomer, unassigned) [Compound 371]

>  <test_target>
HBV rcDNA

>  <test_result>
7.28

$$$$
>  <compound>
CC(C)CN(C(=O)Nc1ccc(F)c(Cl)c1)C(C)c1c[nH]c(=O)c2c(F)cc(F)cc12 (single isomer, unassigned) [Compound 446]

>  <test_target>
HBV rcDNA

>  <test_result>
6.23

$$$$
>  <compound>
Cc1ncc(C(C)N(C)C(=O)Nc2ccc(F)c(Cl)c2)c2ccccc12 (single isomer, unassigned) [Compound 353]

>  <test_target>
HBV rcDNA

>  <test_result>
6.72

$$$$
>  <compound>
CC(c1c[nH]c(=O)c2c(F)c(F)ccc12)N(C)C(=O)NCc1ccc(F)cc1 (single isomer, unassigned) [Compound 491]

>  <test_target>
HBV rcDNA

>  <test_result>
4.68

$$$$
>  <compound>
CC(c1c[nH]c(=O)c2cc(F)c(F)cc12)N(C)C(=O)NCc1ccc(F)c(Cl)c1 (single isomer, unassigned) [Compound 484]

>  <test_target>
HBV rcDNA

>  <test_result>
4.85

$$$$
>  <compound>
CC(c1cnc(C(N)=O)c2ccccc12)N(C)C(=O)Nc1ccc(F)c(Cl)c1 (single isomer, unassigned) [Compound 328]

>  <test_target>
HBV rcDNA

>  <test_result>
5.39

$$$$
>  <compound>
CC(C)CN(C(=O)Nc1ccc(F)c(Cl)c1)C(C)c1c[nH]c(=O)c2c(F)cccc12 (single isomer, unassigned) [Compound 360]

>  <test_target>
HBV rcDNA

>  <test_result>
6.74

$$$$
>  <compound>
CC(c1c[nH]c(=O)c2ccccc12)N(Cc1ccncc1)C(=O)Nc1ccc(F)c(Cl)c1 (single isomer, unassigned) [Compound 308]

>  <test_target>
HBV rcDNA

>  <test_result>
6.89

$$$$

# credit: patent US20230045421A1
